Biological target: MAP4K4 (HGK) (Homo sapiens, UniProt O95819)
Sequence (O95819 whole entry): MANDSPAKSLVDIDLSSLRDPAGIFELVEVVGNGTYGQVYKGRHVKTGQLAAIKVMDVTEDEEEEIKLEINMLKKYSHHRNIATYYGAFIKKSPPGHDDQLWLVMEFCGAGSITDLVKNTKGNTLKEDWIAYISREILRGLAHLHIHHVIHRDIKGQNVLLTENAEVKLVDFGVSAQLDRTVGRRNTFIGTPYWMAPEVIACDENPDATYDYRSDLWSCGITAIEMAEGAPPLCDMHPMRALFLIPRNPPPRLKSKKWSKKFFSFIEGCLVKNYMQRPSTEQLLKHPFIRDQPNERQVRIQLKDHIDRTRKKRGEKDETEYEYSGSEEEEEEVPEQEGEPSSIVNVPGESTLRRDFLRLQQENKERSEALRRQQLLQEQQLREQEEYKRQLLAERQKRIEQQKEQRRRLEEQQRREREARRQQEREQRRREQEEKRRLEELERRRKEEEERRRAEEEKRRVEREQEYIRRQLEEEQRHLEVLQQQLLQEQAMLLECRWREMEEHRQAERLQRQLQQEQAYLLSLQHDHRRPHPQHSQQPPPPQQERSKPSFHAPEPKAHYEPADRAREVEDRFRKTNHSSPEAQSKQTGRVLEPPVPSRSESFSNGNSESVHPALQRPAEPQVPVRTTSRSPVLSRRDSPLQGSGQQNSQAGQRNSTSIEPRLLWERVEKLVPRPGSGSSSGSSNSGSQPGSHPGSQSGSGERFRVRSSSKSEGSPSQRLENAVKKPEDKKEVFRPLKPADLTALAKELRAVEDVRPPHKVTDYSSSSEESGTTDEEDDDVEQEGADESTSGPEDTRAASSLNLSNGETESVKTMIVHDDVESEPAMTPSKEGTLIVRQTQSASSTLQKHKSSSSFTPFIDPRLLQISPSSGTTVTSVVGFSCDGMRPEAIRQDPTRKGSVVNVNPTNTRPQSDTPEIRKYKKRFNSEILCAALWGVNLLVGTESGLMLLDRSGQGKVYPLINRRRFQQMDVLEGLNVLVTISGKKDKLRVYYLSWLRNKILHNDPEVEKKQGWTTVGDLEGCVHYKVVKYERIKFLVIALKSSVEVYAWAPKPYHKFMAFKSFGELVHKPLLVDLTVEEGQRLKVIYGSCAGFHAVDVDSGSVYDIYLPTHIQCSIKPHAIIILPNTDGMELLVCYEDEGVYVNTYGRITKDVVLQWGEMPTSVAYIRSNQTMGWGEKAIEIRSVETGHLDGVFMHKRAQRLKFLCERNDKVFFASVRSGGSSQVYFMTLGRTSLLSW
Measure: IC50 (nM)
Provide the reading as a plain figure in nM.

(Q) Observed IC50 on MAP4K4 (HGK) (Homo sapiens, UniProt O95819) for CN1CCN(c2cc(C(=O)Nc3cc4cc(-c5cnn(C)c5)ccc4cn3)ccn2)CC1 , please.
(A) 7

###

System: prostate cancer (5 cell lines)
Experiment: CellTiter-Glo Viability Assay, prostate cancer
Assay type: cell-based
Settings: Homo sapiens, PC-3; PC3 cell line; inhibition of cancer cell proliferation; read-out: Prostate cancer EC50 PC3
Description: Fifty-one human cancer cell lines (breast cancer (8 cell lines), colorectal cancer (6 cell lines), haematopoietic & lymphoid tumors (13 cell lines), liver cancer (3 cell lines), lung cancer (4 cell lines), ovarian cancer (4 cell lines), pancreatic cancer (8 cell lines), and prostate cancer (5 cell lines)) were tested to determine the effects of representative compounds of Formulas (I)-(XII) on cellular proliferation, as evaluated using the CellTiter-Glo® Viability Assay. […]
Measure: EC50 (nM)
Write down the numeric answer in nM and omit the unit.

Past entries and their recorded results:
{"columns": ["Molecule", "Target or system", "Observed measurement"],
 "data": [
  ["CN(C)Cc1cncc(-c2cnc3[nH]nc(-c4nc5c(-c6cc(F)cc(N7CCOCC7)c6)cncc5[nH]4)c3c2)c1 [Compound 46]", "prostate cancer (5 cell lines)", 1180],
  ["Cc1n[nH]c2ccc(-c3cncc(N[C@H]4CC[C@@H](N)CC4)n3)cc12 [Compound 64]", "prostate cancer (5 cell lines)", 294],
  ["Cn1ncc(-c2ccc3cnc(NC(=O)C4CC5(C4)CN(CCF)C5)cc3c2)c1CN1CCCCC1 [Compound 77]", "prostate cancer (5 cell lines)", 901]
]}

Now take the following molecule into account.
(Q) Given the entry O=C(Nc1cncc(-c2ccc3[nH]nc(-c4cc5cnccc5[nH]4)c3c2)c1)C1CCCCC1 [Compound 47] , what EC50 was observed with prostate cancer (5 cell lines)?
(A) 322

###

Tested on: SW480 colorectal cancer cells
Test: Gene expression qRT-PCR in SW480 cells
Assay type: cell-based
Details: Homo sapiens; SW480, 3 μM, 24 hours, relative to DMSO; read-out: gene expression fold change CLK3
Measure: fold induction at 3 µM
Number, no unit, nothing else.

{"columns": ["Smiles string", "Target or system", "Observed measurement"],
 "data": [
  ["Nc1cncc(-c2ccc3cnc(NC(=O)c4ccc(OC5CCNCC5)cc4)cc3c2)c1", "SW480 colorectal cancer cells", 0.35]
]}

(Q) Fill blank: measured fold induction at 3 µM of the compound Cc1n[nH]c2ncc(-c3cncc(OC[C@@H](N)Cc4ccccc4)n3)cc12 is ____.
(A) 0.74

(Q) Item under review: Cc1ncc(C(=O)Nc2cc3cc(-c4cnc(C)n4C)ccc3cn2)s1 . Reported fold induction at 3 µM?
(A) 0.59

(Q) Data request, read-out fold induction at 3 µM, for Cc1ncc(NC(=O)c2n[nH]c3ccc(-c4cnn(C5CCNCC5)c4)cc23)s1
(A) 0.55

(Q) Which fold induction at 3 µM reading was recorded for the compound Cc1n[nH]c2ccc(-c3cncc(OC[C@H](N)Cc4ccccc4)n3)cc12 ?
(A) 0.02

(Q) Request the reported fold induction at 3 µM associated with O=C(Nc1cc2cc(-c3cncc(NCC4(F)CNC4)n3)ccc2cn1)C1CC1
(A) 0.05

(Q) Please give the measured fold induction at 3 µM for this compound: CC(C)N1CCC(n2cc(C(=O)Nc3cc4cc(-c5cnn(C)c5)ccc4cn3)cn2)CC1
(A) 0.09

(Q) Report fold induction at 3 µM for Cc1nc(Nc2n[nH]c3c2CN(C(=O)N[C@H](CN(C)C)c2ccccc2)C3(C)C)c2sccc2n1 please.
(A) 0.08
